Record form. Attribute: IC50. Fill in for each entry.
target: IL-17A/A (Homo sapiens, UniProt Q16552); assay: HEK-Blue IL-17A/A inhibition assay (SEAP reporter); settings: HEK-Blue cells (HEK 293 expressing IL-17RA, IL-17RC, Act1); IL-17A/A stimulation; 20 hours; SEAP read at A630; 4-parameter fit
Sequence (Q16552 24-155): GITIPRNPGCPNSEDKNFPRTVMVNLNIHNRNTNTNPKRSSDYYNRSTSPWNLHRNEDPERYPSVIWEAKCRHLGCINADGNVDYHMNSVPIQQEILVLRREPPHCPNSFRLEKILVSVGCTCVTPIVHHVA

Before answering, review these 2 worked examples.
{"COMPOUND": "CC(C)n1nccc1C(=O)N[C@H](C(=O)Nc1ccc(C(C(=O)NCC(F)(F)F)N2CCOCC2)cc1F)C(C1CC1)C1CC1 (single isomer, unassigned) [Compound 141]", "IC50": "> 1000 nM"}
{"COMPOUND": "COc1cc(NC(=O)[C@@H](NC(=O)c2ccnn2C(C)C)C(C2CC2)C2CC2)c(F)cc1C(C)C(=O)N1CC(O)CC1C(F)(F)F (single isomer, unassigned) [Compound 182]", "IC50": "> 1000 nM"}

# context switch: different compound, same IC50
## Task Give the reported value of IC50 for this record: CC(C)n1nccc1C(=O)N[C@H](C(=O)Nc1ccc([C@H](C)C(=O)NC2CNCC2(F)F)cc1F)C(C1CC1)C1CC1 (single isomer, unassigned) [Compound 134]
## Result 100 to 1000 nM

Measured values drawn from patent US20240376056A1 for this set.
